From various publications: pIC50 for Lysine-specific demethylase 4C (Homo sapiens, UniProt Q9H3R0).
pIC50: −log10 of the molar value.

Which pIC50 reading was recorded for the compound `CN(c1ccc(OC(F)F)cc1)c1ccc2c(c1)OCC[C@H]2CNc1cnccc1C(=O)O` ? 6.00 to 7.00

Which pIC50 reading was recorded for the compound `O=C(O)c1ccnc(-c2ncn(CC3CC3)c2-c2ccc(F)cc2)c1` ? 6.00 to 7.00

Which pIC50 reading was recorded for the compound `CN(c1ccc(OCC2CC2)cc1)c1ccc(Oc2nc(O)c3ccncc3n2)cc1` ? 5.00 to 6.00

Which pIC50 reading was recorded for the compound CCC(C)Oc1nc(O)c2ccncc2n1 (stereo not drawn) ? ≥ 7.00

Which pIC50 reading was recorded for the compound `FC(F)(F)c1cccc(Cn2cnc(-c3cc(-c4nn[nH]n4)ccn3)c2)c1Cl` ? 5.00 to 6.00

Which pIC50 reading was recorded for the compound `Cn1cnc(-c2cc(-c3nn[nH]n3)ccn2)c1-c1ccc(F)c(OCc2ccccc2)c1` ? 5.00 to 6.00

Which pIC50 reading was recorded for the compound `Oc1nc(OCc2cc(F)ccc2F)nc2cnccc12` ? ≥ 7.00

Which pIC50 reading was recorded for the compound `Cc1ccc(S(=O)(=O)c2ccc3c(c2)CCC[C@@H]3CNc2cnccc2C(=O)O)cc1` ? 6.00 to 7.00

Which pIC50 reading was recorded for the compound `O=C(CO)N1CC[C@H](n2cc(Oc3nc(O)c4ccncc4n3)cn2)C1` ? ≥ 7.00

Which pIC50 reading was recorded for the compound `CN(c1ccc(O)cc1)c1ccc2c(c1)CCC[C@H]2CNc1cnccc1C(=O)O` ? 6.00 to 7.00

Which pIC50 reading was recorded for the compound `O=C(O)c1ccnc(-c2cn(CCN3CCOCC3)cn2)c1` ? < 5.00

Which pIC50 reading was recorded for the compound `O=C(O)c1ccnc(-n2nc(COc3ccccc3)cc2O)c1` ? < 5.00

Which pIC50 reading was recorded for the compound O=C(O)c1ccncc1NCC1CCOc2cc(F)ccc21 (stereo not drawn) ? 6.00 to 7.00

Which pIC50 reading was recorded for the compound `Cn1cnc(-c2cc(C(=O)O)ccn2)c1-c1cccc(Cl)c1` ? 6.00 to 7.00

Which pIC50 reading was recorded for the compound `CC(C)CCOc1nc(O)c2ccncc2n1` ? 6.00 to 7.00

Which pIC50 reading was recorded for the compound `O=C(O)c1ccnc(-n2nc(Cc3ccccc3)cc2O)c1` ? 5.00 to 6.00

Which pIC50 reading was recorded for the compound `Oc1nc(Oc2ccc3c(ccn3C3CCCC3)c2)nc2cnccc12` ? 5.00 to 6.00

Which pIC50 reading was recorded for the compound `CN(c1ccc(Oc2nc(O)c3ccncc3n2)cc1)c1cncc(N2CCOCC2)c1` ? 6.00 to 7.00

Which pIC50 reading was recorded for the compound `CN(C)c1cccc(Oc2nc(O)c3ccncc3n2)c1` ? 6.00 to 7.00

Which pIC50 reading was recorded for the compound CCC(C)Oc1cc(Cl)ccc1COc1ccnn1-c1cc(C(=O)O)ccn1 (stereo not drawn) ? 5.00 to 6.00

Which pIC50 reading was recorded for the compound `Cc1nn(C)c2cc(Oc3nc(O)c4ccnc(-c5cn(C)cn5)c4n3)ccc12` ? 6.00 to 7.00

Which pIC50 reading was recorded for the compound `Cc1cccc(-c2ccnn2-c2cc(C(=O)O)ccn2)c1` ? 6.00 to 7.00

Which pIC50 reading was recorded for the compound `COCCN(c1ccc(Oc2nc(O)c3ccncc3n2)cc1)c1ccc(C(C)C)cc1` ? 6.00 to 7.00

Which pIC50 reading was recorded for the compound `O=C(O)c1ccncc1NCc1cnccc1C1CC1` ? ≥ 7.00
